Multi-source literature compilation: IC50 on TYRO3 (Homo sapiens, UniProt Q06418).

Example cases with answers are listed next.
INSERT INTO results (molecule, testedsystem, val) VALUES
  ('COC[C@H](C)Nc1ncc2c(-c3ccnc(N4Cc5nc(C)sc5C4)c3)cc([C@H]3CC[C@H](O)CC3)n2n1', 'TYRO3 (Homo sapiens, UniProt Q06418)', '≤ 100 nM'),
  ('C[C@@H]1CCCN1C1(C)CCc2ccc(-c3cnc4[nH]nc(-c5ccc(C(N)=O)c(F)c5)c4c3)cc2CC1 (stereo partly drawn)', 'TYRO3 (Homo sapiens, UniProt Q06418)', '< 100 nM'),
  ('COC[C@H](C)Nc1ncc2c(C3=CCN(C(=O)OC(C)(C)C)CC3)cc([C@H]3CC[C@H](O)CC3)n2n1', 'TYRO3 (Homo sapiens, UniProt Q06418)', '≤ 100 nM');

API: value(readout=IC50, system=TYRO3 (Homo sapiens, UniProt Q06418)) for record CC[C@H](C)Nc1ncc2c(C3CCOCC3)cc([C@H]3CC[C@H](O)CC3)n2n1
≤ 100 nM

API: value(readout=IC50, system=TYRO3 (Homo sapiens, UniProt Q06418)) for record COC[C@H](C)Nc1ncc2c(-c3cnn(C4COC4)c3)cc(C3CCSCC3)n2n1
≤ 100 nM

API: value(readout=IC50, system=TYRO3 (Homo sapiens, UniProt Q06418)) for record COC[C@H](C)Nc1ncc2c(-c3cnn(C[C@H]4CCC(=O)N4)c3)cc([C@H]3CC[C@H](O)CC3)n2n1
≤ 100 nM

API: value(readout=IC50, system=TYRO3 (Homo sapiens, UniProt Q06418)) for record Cc1cc(-n2c(=O)c(C(=O)Nc3ccc(-c4cc(C5CCN(C(=O)C(C)C)CC5)n5ncnc(N)c45)cc3)cn(C(C)C)c2=O)nn1C
> 100 nM

API: value(readout=IC50, system=TYRO3 (Homo sapiens, UniProt Q06418)) for record COc1cc2nccc(Oc3cnc(NC(=O)c4cn(C5CC5)cc(-c5ccc(F)cc5)c4=O)nc3)c2cc1OC
11 nM

API: value(readout=IC50, system=TYRO3 (Homo sapiens, UniProt Q06418)) for record OC1CCC(c2cc(-c3ccnc(N4CCOCC4)c3)c3cnc(NC4CCOC4)nn23)CC1 (stereo not drawn)
≤ 100 nM

API: value(readout=IC50, system=TYRO3 (Homo sapiens, UniProt Q06418)) for record COC[C@H](C)Nc1ncc2c(-c3ccc(CN4CCOCC4)cc3)cc([C@H]3CC[C@H](NS(C)(=O)=O)CC3)n2n1
≤ 100 nM

API: value(readout=IC50, system=TYRO3 (Homo sapiens, UniProt Q06418)) for record CC[C@H](C)Nc1ncc2c(O[C@H]3CC[C@H](O)CC3)ncc([C@H]3CC[C@H](O)CC3)c2n1
100 to 1000 nM
